measured-on: human serotonin re-uptake transporter (hSERT) (Homo sapiens)
Sequence (P31645 whole entry): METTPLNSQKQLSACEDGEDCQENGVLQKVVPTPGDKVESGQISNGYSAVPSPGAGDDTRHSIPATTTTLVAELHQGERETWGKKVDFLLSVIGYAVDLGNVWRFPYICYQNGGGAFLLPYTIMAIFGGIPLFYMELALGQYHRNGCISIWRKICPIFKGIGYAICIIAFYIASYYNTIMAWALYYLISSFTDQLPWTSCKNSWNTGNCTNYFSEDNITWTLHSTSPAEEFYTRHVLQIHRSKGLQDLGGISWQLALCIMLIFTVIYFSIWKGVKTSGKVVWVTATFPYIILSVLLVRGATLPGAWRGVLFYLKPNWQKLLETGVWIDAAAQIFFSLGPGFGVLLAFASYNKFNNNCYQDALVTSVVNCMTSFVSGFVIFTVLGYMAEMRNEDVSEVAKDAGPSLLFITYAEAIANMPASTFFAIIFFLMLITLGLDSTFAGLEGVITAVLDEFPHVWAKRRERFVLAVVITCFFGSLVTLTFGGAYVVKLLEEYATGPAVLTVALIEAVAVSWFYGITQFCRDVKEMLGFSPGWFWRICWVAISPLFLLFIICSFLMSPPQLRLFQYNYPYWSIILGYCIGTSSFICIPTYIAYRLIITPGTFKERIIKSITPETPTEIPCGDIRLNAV
test-protocol: Labeled citalopram displacement from hSERT containing membranes (SPA)
Type: binding
experimental-conditions: hSERT containing membranes; Ki from IC50 by Cheng-Prusoff; 3.3 nM (3H) citalopram; read-out: Inhibition constant Ki for tritiated citalopram displacement
Form field: pKi (one value per entry).
Would you please state pKi, meaning minus log10 of the concentration in mol/L, as a bare number?

Solved cases (2 shown):
{"molecule": "C=C(C)[C@H]1COc2cc3oc(=O)ccc3cc2O1 (racemic)", "pKi": 5.21}
{"molecule": "C/C(=C\\COc1ccc2ccc(=O)oc2c1)CCC(=O)C(C)(C)O [6′-Dehydromarmin, 6′-dehydromarmin]", "pKi": 4.99}

Now for a further molecule.
// field: pKi; key: `CC(C)=CCC/C(C)=C/COc1ccc2ccc(=O)oc2c1` ; value = 4.62
